System: phospho-akt (Thr308) in PC-3 cells
ASSAY REMARKS: Inhibition of phospho-akt (Thr308) in PC-3 cells, MSD phospho-akt 308 ELISA kit
Type: cell-based
CONDITION: Homo sapiens; inhibition of P308 Akt in PC-3 cells using MSD, 2 hours, no serum; read-out: EC50
Recorded measurements of EC50, one per entry

>>> observed_measurement("C[C@H](NC(=O)c1nc(C#N)cnc1N[C@H](C)c1ccc(-c2cnc3[nH]nc(N)c3n2)cc1)c1ccc(F)c(F)c1")
"< 1000 nM"
>>> observed_measurement("Nc1ncc(-c2ccc(CNc3ncc(C(F)(F)F)cc3C(=O)Nc3ccc(F)cc3)cc2)nc1CO")
"< 1000 nM"
>>> observed_measurement("Nc1n[nH]c2ncc(-c3ccc(CNc4ncc(C(F)(F)F)cc4C(=O)NCC4CCOC4)cc3)cc12 (stereo not shown)")
"> 10000 nM"
>>> observed_measurement("C[C@H](NC(=O)c1nc(C#N)cnc1NCc1ccc(-c2cnc(N)c(N3CCNCC3)n2)cc1)c1ccc(F)c(F)c1")
"1000 to 10000 nM"
>>> observed_measurement("C[C@@H](Nc1ncc(C(F)(F)F)cc1C(=O)Nc1ccc(F)cc1)c1ccc(-c2cnc3[nH]nc(N)c3c2)cc1")
"< 1000 nM"
>>> observed_measurement("C[C@H](NC(=O)c1nccnc1NCc1ccc(-c2cnc3[nH]c(=O)[nH]c3c2)cc1)c1ccc(F)cc1")
"< 1000 nM"

Return the recorded EC50 value; entry: Nc1ncc(-c2ccc(CNc3ncc(C(F)(F)F)cc3C(=O)Nc3ccc(F)cc3)cc2)nc1N1CCC[C@H](N)C1 < 1000 nM

Return the recorded EC50 value; entry: CCC(C)n1cc(-c2ccc(CNc3ncc(C(F)(F)F)cc3C(=O)Nc3ccc(F)cc3)cc2)c2c(N)ncnc21 (stereo not shown) > 10000 nM

Return the recorded EC50 value; entry: N#Cc1cnc(NCc2ccc(-c3c[nH]c4ncnc(N)c34)cc2)c(C(=O)Nc2ccc(F)cc2)n1 < 1000 nM

###

System: phospho-akt (Thr308) in PC-3 cells
ASSAY REMARKS: Inhibition of phospho-akt (Thr308) in PC-3 cells, MSD phospho-akt 308 ELISA kit
Type: cell-based
CONDITION: Homo sapiens; inhibition of P308 Akt in PC-3 cells using MSD, 2 hours, no serum; read-out: EC50
EXPERIMENTAL READOUT: EC50

>>> observed_measurement("C[C@H](NC(=O)c1cc(C#N)cnc1NCc1ccc(-c2cnc(N)c(CO)n2)cc1)c1ccc(F)cc1")
"< 1 µM"
>>> observed_measurement("CNC(=O)c1cc(S(=O)(=O)NCCO)cnc1NCc1ccc(-c2ccc3ncnc(N)c3c2)s1")
"> 10 µM"

Return the recorded EC50 value; entry: C[C@H](NC(=O)c1nc(C#N)cnc1N[C@H](CO)c1ccc(-c2cnc3[nH]nc(N)c3c2)cc1)c1ccc(F)c(F)c1 < 1 µM

Return the recorded EC50 value; entry: N#Cc1cnc(NCc2ccc(Oc3cccnc3N)cc2)c(C(=O)NCc2ccc(F)c(F)c2)c1 > 10 µM

Return the recorded EC50 value; entry: Nc1ncc(-c2ccc(CNc3ncc(C(F)(F)F)cc3C(=O)Nc3ccc(F)cc3)cc2)nc1C(=O)N1CCNCC1 1 to 10 µM

Return the recorded EC50 value; entry: Nc1n[nH]c2ncc(-c3ccc(CNc4ncc(C(F)(F)F)cc4C(=O)Nc4ccc(C(F)(F)F)nc4)cc3)cc12 1 to 10 µM

Return the recorded EC50 value; entry: Cc1cnc2c3cc(-c4ccc(CNc5ncccc5C(=O)N[C@@H](C)c5ccc(F)c(F)c5)s4)ccc3ncn12 > 10 µM
